Origin of the recorded values: ChEMBL document CHEMBL4007461

Biological target: UniProt P10635
Sequence (P10635 whole entry): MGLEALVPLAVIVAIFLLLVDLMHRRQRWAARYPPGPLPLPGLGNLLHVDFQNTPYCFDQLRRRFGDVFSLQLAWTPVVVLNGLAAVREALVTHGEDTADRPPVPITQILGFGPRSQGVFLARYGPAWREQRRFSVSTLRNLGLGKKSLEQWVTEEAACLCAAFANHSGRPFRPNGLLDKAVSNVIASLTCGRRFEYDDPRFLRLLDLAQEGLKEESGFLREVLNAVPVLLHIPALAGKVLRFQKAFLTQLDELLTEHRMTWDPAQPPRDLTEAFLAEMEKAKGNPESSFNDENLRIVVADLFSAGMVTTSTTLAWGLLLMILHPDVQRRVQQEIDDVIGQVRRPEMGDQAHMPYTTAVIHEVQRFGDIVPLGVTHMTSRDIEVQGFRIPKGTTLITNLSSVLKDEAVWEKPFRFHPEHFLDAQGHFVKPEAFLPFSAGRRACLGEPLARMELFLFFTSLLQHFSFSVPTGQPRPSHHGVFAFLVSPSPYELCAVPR
pIC50: −log10 of the molar value.
READOUT_KIND: pIC50

Query: Would you kindly share the measured pIC50 for Cc1ccc(-c2ccc(C(=O)NC(CN)c3ncc(CO)s3)[nH]2)cc1F (stereo in doubt) ?
Reply: < 4.60

Query: Would you kindly share the measured pIC50 for NCC(NC(=O)c1ccc(-c2cc(F)c(Cl)c(F)c2)[nH]1)c1ncc(CO)s1 (stereo in doubt) ?
Reply: < 4.60

Query: Would you kindly share the measured pIC50 for Cc1nc(C(NC(=O)c2ccc(-c3ccc(Cl)cc3)[nH]2)C2CCCCN2)sc1CO (stereo not drawn) ?
Reply: < 4.60
